Tested on: MS2 coat protein
Test: apparent KD of MS2 coat protein; designed switch direction (-1 OFF switch, 1 ON switch): 1; higher = weaker reporter binding
Conditions: input ligand: microRNA oligo, concentration not stated
Catalogue of sequences with associated apparent KD of MS2 coat protein
Numbers only; they are read as nM.

Field: example entries. Status: answers known.
>>> reported_result("CACAUGAGGAUCACCCAUGUGAGGCGGCAAUAAAGCCGCGCACAGGAUAUAGCGCUAUGAAUGCGCUAGAAGGGUGAUUAGAAC [Reines] (Eterna round: R96, puzzle: Same State NG 3)")
59.9
>>> reported_result("GGAGCCGGCACCGAGGAUAUUCAUAUUAAAACAUGAGGAUCACCCAUGUAGGCCAGAAGGCUUUGGGAGAAGGCGGAUCGGCUCG [Xeonanis - 3] (Eterna round: R96, puzzle: Same State 2)")
148
>>> reported_result("UUCUCAUUUACAUGAGGAUCACCCAUGUUUUUUUGUCAGAGAUAGGAUAUAGUUCUCUCGUUUUUCUAGAAGGAUCUUUUUAUU [JR_SSNG3_Sub087] (Eterna round: R96, puzzle: Same State NG 3)")
53.2
>>> reported_result("GGUCGGACUCACAUGAGGAUCACCCAUGUUGCGGAAACGCGGCAGGAUAUCUGUCCGAAAAGGUCAGAGAAGGGUCAACCGACC [Fiskers NG3ss - 62] (Eterna round: R96, puzzle: Same State NG 3)")
141

We next turn to a different sequence, shown below.
Q. Looking for the measured apparent KD of MS2 coat protein of GUCCAAAACACAGGAUAUCCCAGUCAUGAUCUGGGAGAAGGGUGGCCACAUGAGGAUCACCCAUGUGAAGUGCGAGAGGCACGA [Inerraat] (Eterna round: R96, puzzle: Same State NG 1) , can you help?
A. 827

====

System: MS2 coat protein
Assay: apparent KD of MS2 coat protein; higher = weaker reporter binding
Conditions: Eterna round: R107; input ligand: arginine 13.2 mM
# label = Condition met if apparent KD of MS2 coat protein >= 30 nM else Condition not met

>>> label_class("GGACUAACCAGAAGGAGCGACACGCAGAAACUGCAAAUUCCUCCGCACGAGGAUCACCCGUGUCAGGUAGGUCGCUGGUUAGUCG [ArgBX 28]")
"Condition not met"

Q. I'd appreciate it if you could say whether UUAUUUAACGGAAGGAGCGCGGAUAAAAUAGUGGGUAAACAUGAGGAUCACCCAUGUAAACCGCAGGUAGGUCGCCGAUAUUUAU [AstrosEXyARgB#5] has apparent KD of MS2 coat protein at least equal to 30 nM.
A. Condition not met

Q. I'd appreciate it if you could say whether AAAAUCCUAUCUGAGGAUCACCCAGGUGAAGGAGCGCCCGAAAGGGCAGGUAGGUCGCACCUGAGGAUCACCCUGGUAACCUAAA [ArgEX 10 #DoubleMS2 #OpenEnded #AlternativeMS2] has apparent KD of MS2 coat protein at least equal to 30 nM.
A. Condition met

Q. I'd appreciate it if you could say whether AUUAUCAUGGUCAUAUAUAUAUCUUCAGAUACCAGACUAUAUUAAGUCCCUUGGCAGCUGUUACAUGAGGAUCACCCAUGUUAUA [JR_ExcTheophyA_Sub014] has apparent KD of MS2 coat protein at least equal to 30 nM.
A. Condition met

====

Catalogue of sequences with associated apparent KD of MS2 coat protein
Tested on: MS2 coat protein
Test: apparent KD of MS2 coat protein; designed switch direction (-1 OFF switch, 1 ON switch): -1; higher = weaker reporter binding
Settings: input ligand: FMN 200 uM
Numbers only; they are read as µM.

Field: example entries. Status: answers known.
>>> reported_result("GUGUCGUAAGGAUAUUUACCUGAGCCACUAGAGCGCUUGGAGAAGAAGGUACAUGAGGAUCACCCAUGUGGUGA [Eternabot (L2) Solution 61] (Eterna round: R97, puzzle: Exclusion 4)")
1.43
>>> reported_result("AUAAAUCAUGUAGGAUAUGCGUAGCGAAGCUAUGCAGAAGGACAUGAGGAUCACCCAUGUCUUUCCGUCUGCGAACAGACGGAA [Mat - Exclusion NG 1 - Mod of JL - D43] (Eterna round: R96, puzzle: Exclusion NG 1)")
0.199

We next turn to a different sequence, shown below.
Q. Any idea what apparent KD of MS2 coat protein came out for GCCUCACAUGAGGAUCACCCAUGUCAGGAUAUAGGAGACGGCAGAAAUCCUGCCAUCGCUAGAAGGGACUGGCA [Tirebi] (Eterna round: R96, puzzle: Exclusion 1) on MS2 coat protein?
A. 0.138

====

System: MS2 coat protein
Test: apparent KD of MS2 coat protein; designed switch direction (-1 OFF switch, 1 ON switch): -1; higher = weaker reporter binding
Conditions: input ligand: FMN 200 uM
# label = t if apparent KD of MS2 coat protein >= 40 nM else f

>>> label_class("UCUCGAAGGCAAGGAUAUCCUACAUUGUUCUGGCCCGGGCAUGCUACAUGAGGAUCACCCAUGUGGGAGAAGGUGCGCCACGGC [Design 29] (Eterna round: R96, puzzle: Exclusion NG 2)")
"f"
>>> label_class("UAAGAGUGAGGAUAUACGUCGCUGGUCGGGAUGGACGCAUGACAUGAGGAUCACCCAUGUAGAAGGCACAAAAC [Enxela Mod 10 - Jieux - Exclusion 2] (Eterna round: R97, puzzle: Exclusion 2)")
"t"
>>> label_class("AAUAACAAGUUGAUCCUUCACAUGAGGAUCACCCAUGUGCUCGUCUUGUAAAGUACUAUCACGAAAGUGAUAGUACA (Eterna round: R97, puzzle: Sensor, turn-off variant 1)")
"t"

Q. I'd appreciate it if you could say whether AGUACUAACACGUGUGUGUUAGUACAAUAAGCUUGUGAAACAUGAGGAUCACCCAUGUCCUCAUAAGCUCGUCUUAU [salish99_TOv2_r3_074] (Eterna round: R96, puzzle: Sensor v3, turn-off variant 2) has apparent KD of MS2 coat protein at least equal to 40 nM.
A. f

Q. I'd appreciate it if you could say whether AUUCUUCAUAUCACAUGAGGAUCACCCAUGUUAUUCAUCGCGUAGGAUAUCGAGAAUUUUAAAUACGAGAAGGACGAAUUGAUA [JR_ExcNG3_Sub071] (Eterna round: R96, puzzle: Exclusion NG 3) has apparent KD of MS2 coat protein at least equal to 40 nM.
A. f

====

Test system: MS2 coat protein
Assay: apparent KD of MS2 coat protein; designed switch direction (-1 OFF switch, 1 ON switch): -1; higher = weaker reporter binding
Details: Eterna round: R95; input ligand: FMN 200 uM
Catalogue of sequences with associated apparent KD of MS2 coat protein
Numbers only; they are read as µM.

>>> reported_result("AUGAGCAGACGGAGAUCCAACAUGAGGAUCACCCAUGUCUCAUAAGCUUUUUGUUCAUCUUAUUGUACCUUGGUGCU [Mat - Sensor v3 - turn-off var 1 - JL Mod - D22] (puzzle: Sensor v3, turn-off variant 1)")
0.0537
>>> reported_result("ACAAGCUUUUUGUUCGUCUUAUAAUAAUAAAUAAAUAUAACAUGAGGAUCACCCAUGUUGAGAAGACAACCUCAUGU [Sesor Array 24 - Jieux - Sensor v3, turn-off variant 2] (puzzle: Sensor v3, turn-off variant 2)")
0.242

Q. Looking for the measured apparent KD of MS2 coat protein of AAGAAGAUAGGAUAUACGAGGAGAGGAGAGAAGAGGAGAGGACAUGAGGAUCACCCAUGUAGAAGGAUCAGGAA [JR_Exclu2_Sub062] (puzzle: Exclusion 2) , can you help?
A. 0.0289

Q. Looking for the measured apparent KD of MS2 coat protein of AAUAAUAAGGAGGAUAUCGUAUCGGAAACGAUACGAGAAGGCCUAACAUGAGGAUCACCCAUGUUCCUCAAUAA [Fiskers Ex 6 - 2] (puzzle: Exclusion 6) , can you help?
A. 1.32

Q. Looking for the measured apparent KD of MS2 coat protein of GUGGUGACAGGAUAUACAUGAGGAUCACCCAUGUGAGGAGGAGGAGAGAGGUGAAGGAGUAGAAGGGUCAGAGA [JR_Exclu3_Sub025] (puzzle: Exclusion 3) , can you help?
A. 0.102

====

Tested on: MS2 coat protein
Experiment: apparent KD of MS2 coat protein; designed switch direction (-1 OFF switch, 1 ON switch): 1; higher = weaker reporter binding
Conditions: input ligand: FMN 200 uM
# label = true if apparent KD of MS2 coat protein >= 700 nM else false

Q. I'd appreciate it if you could say whether GGUGGGUUACUACCCACACAUGAGGAUCACCCAUGUAUUGGGAAGGAUAUGGUGCCUGUGUGGUACCAGAAGGUCCUGGAGGUG [SS-NG3-LRO20] (Eterna round: R96, puzzle: Same State NG 3) has apparent KD of MS2 coat protein at least equal to 700 nM.
A. true

Q. I'd appreciate it if you could say whether AGGUUCCUGCUAGGAUAUCUAGGAUAUGGACGAGGAUUACCCGAGCAGGAUUACCGCACCAGAGGAGAGAAGGAGCAACAAGAG [pwkr ssNG2 2F5 2FMN.14] (Eterna round: R96, puzzle: Same State NG 2) has apparent KD of MS2 coat protein at least equal to 700 nM.
A. true

Q. I'd appreciate it if you could say whether AUAUACUGGGUAGGAUAUCUAGGAUAUGGGAAAGACUAAGUCUGUAGGUCACCUAACCCAGAUGGAGAGAAGGACCCAACACAC [pwkr ssNG2 2FMN + F9.42] (Eterna round: R96, puzzle: Same State NG 2) has apparent KD of MS2 coat protein at least equal to 700 nM.
A. false

Q. I'd appreciate it if you could say whether GCCAUCGUAUGAGGAUAUGGCACCGUUUCGGUGCCAGAAGGCAUGUCAAUUGACAUGAGGAUCACCCAUGUAUUUUCGAUGGCA [JL Fiskers NG1ss - 33 mod 11] (Eterna round: R96, puzzle: Same State NG 1) has apparent KD of MS2 coat protein at least equal to 700 nM.
A. false
